target: PI3K delta (Homo sapiens, UniProt O00329); assay: Luciferase-coupled chemiluminescence kinase assay (ATP consumption, KinaseGlo)
Sequence (O00329 whole entry): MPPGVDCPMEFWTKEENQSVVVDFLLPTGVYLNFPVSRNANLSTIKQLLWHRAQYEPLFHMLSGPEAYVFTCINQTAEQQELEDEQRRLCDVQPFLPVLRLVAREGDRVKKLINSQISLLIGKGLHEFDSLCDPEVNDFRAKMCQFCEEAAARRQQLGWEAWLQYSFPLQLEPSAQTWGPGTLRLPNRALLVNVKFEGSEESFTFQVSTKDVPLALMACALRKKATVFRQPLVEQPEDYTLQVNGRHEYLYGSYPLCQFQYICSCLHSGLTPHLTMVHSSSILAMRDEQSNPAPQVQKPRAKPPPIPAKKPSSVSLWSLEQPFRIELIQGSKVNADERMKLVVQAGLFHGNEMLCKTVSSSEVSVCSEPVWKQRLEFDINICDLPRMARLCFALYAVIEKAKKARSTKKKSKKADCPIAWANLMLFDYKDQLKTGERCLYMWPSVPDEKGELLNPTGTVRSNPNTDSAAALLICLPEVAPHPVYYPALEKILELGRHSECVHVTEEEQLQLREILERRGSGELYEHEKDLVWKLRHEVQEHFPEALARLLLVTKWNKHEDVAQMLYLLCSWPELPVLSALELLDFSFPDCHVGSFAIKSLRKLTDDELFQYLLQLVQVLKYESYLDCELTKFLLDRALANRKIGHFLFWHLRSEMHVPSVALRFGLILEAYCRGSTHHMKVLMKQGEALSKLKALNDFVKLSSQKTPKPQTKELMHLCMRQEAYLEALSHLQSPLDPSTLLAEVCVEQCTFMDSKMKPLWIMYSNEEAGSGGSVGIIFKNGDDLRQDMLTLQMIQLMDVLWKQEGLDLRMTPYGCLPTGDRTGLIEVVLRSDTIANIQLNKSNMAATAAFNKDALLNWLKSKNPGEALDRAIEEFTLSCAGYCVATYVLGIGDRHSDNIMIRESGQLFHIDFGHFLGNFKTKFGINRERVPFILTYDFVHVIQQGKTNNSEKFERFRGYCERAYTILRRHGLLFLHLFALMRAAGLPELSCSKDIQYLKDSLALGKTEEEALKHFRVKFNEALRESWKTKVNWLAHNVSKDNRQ
Sequence (P27986 whole entry partner): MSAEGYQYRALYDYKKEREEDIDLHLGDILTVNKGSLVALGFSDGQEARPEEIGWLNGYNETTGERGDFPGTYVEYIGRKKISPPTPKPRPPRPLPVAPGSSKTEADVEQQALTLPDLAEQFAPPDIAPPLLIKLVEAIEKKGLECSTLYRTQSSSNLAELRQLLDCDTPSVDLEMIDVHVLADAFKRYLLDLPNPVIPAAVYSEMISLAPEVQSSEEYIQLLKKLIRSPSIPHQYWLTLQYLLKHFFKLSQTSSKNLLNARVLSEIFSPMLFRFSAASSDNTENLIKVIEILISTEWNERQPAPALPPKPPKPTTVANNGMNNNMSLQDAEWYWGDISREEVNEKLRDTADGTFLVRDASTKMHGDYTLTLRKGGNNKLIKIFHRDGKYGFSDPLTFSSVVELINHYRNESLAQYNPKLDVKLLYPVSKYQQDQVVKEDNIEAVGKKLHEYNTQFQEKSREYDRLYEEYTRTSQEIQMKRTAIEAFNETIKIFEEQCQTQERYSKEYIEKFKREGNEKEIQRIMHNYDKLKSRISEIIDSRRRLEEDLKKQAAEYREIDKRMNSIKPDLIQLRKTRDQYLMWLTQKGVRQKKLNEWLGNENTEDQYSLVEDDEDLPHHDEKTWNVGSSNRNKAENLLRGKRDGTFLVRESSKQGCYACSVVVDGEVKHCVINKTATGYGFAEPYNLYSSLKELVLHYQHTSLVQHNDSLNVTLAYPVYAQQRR
Each entry below carries its recorded IC50.

- molecule: "CC(C)CNC(=O)c1nc2c(N3CCC(n4c(=O)[nH]c5ccccc54)CC3)ncnc2n1CC(F)(F)F"
  result: "250 to 500 nM"
- molecule: "CCn1c(C(=O)N[C@H]2CC[C@H](O)CC2)nc2c(N3CCC(n4c(=O)[nH]c5ccccc54)CC3)ncnc21"
  result: "< 50 nM"
- molecule: "Cn1c(C(=O)NCC2CC2)nc2c(N3CCC4(CC3)C(=O)NCC4c3ccccc3)ncnc21 (stereo not shown)"
  result: "500 to 1500 nM"
- molecule: "Cn1c(-c2nnc(C3CC3)o2)nc2c(N3CCC4(CC3)C(=O)Nc3ccccc34)ncnc21"
  result: "< 50 nM"
- molecule: "CCn1c(-c2cncnc2)nc2c(N3CCC4(CC3)C(=O)Nc3ccccc34)ncnc21"
  result: "< 50 nM"

[in] So what does the record say about IC50 for Cn1c(C(=O)NCC(C)(C)O)nc2c(N3CCC(n4c(=O)[nH]c5ccccc54)CC3)ncnc21 ?
[out] < 50 nM

[in] What do we get for Cn1c(C(=O)NCC2CCCOC2)nc2c(N3CCC(n4c(=O)[nH]c5ccccc54)CC3)ncnc21 (stereo not shown) ?
[out] 250 to 500 nM

###

molecular target: PI3K delta (Homo sapiens, UniProt O00329); assay: Luciferase-coupled chemiluminescence kinase assay (ATP consumption, KinaseGlo)
pIC50: −log10 of the molar value.
property-label: pIC50

- compound: "CCc1nnc(-c2nc3c(N4CCC5(CC4)C(=O)Nc4ccccc45)ncnc3n2C)o1"
  pIC50: "> 7.30"
- compound: "Cn1c(-c2cnc3[nH]ccc3c2)nc2c(N3CCC(n4c(=O)[nH]c5ccccc54)CC3)ncnc21"
  pIC50: "> 7.30"
- compound: "Cn1c(C(=O)NCC2CC2)nc2c(N3CCC(n4c(=O)[nH]c5ccccc54)C3)ncnc21 (stereo not shown)"
  pIC50: "5.82 to 6.30"
- compound: "CCn1c(-c2cncnc2)nc2c(N3CCC(n4c(=O)[nH]c5ccccc54)CC3)ncnc21"
  pIC50: "> 7.30"
- compound: "Cc1nc(C(F)(F)F)ccc1-c1nc2c(N3CCC(n4c(=O)[nH]c5ccccc54)CC3)ncnc2n1C"
  pIC50: "5.82 to 6.30"

[in] So what does the record say about pIC50 for Cn1c(C(=O)NC2CCC2)nc2c(N3CCC4(CC3)C(=O)Nc3ccccc34)ncnc21 ?
[out] 6.60 to 7.30

[in] What do we get for Cn1cc(-c2nc3c(N4CC[C@@H](n5c(=O)[nH]c6ccccc65)[C@H](C(=O)O)C4)ncnc3n2C)cn1 ?
[out] 5.82 to 6.30

###

target: PI3K delta (Homo sapiens, UniProt O00329); test: Luciferase-coupled chemiluminescence kinase assay (ATP consumption, KinaseGlo)
pIC50: −log10 of the molar value.
property-label: pIC50

- structure-smiles: "CNc1ccc(-c2nc3c(N4CCC(n5c(=O)[nH]c6ccccc65)CC4)ncnc3n2C)cn1"
  pIC50: "> 7.30"
- structure-smiles: "CCn1cc(-c2nc3c(N4CCC(n5c(=O)[nH]c6ccccc65)CC4)ncnc3n2C)cn1"
  pIC50: "> 7.30"
- structure-smiles: "Cn1c(-c2cn[nH]c2C2CC2)nc2c(N3CCC(n4c(=O)[nH]c5ccccc54)CC3)ncnc21"
  pIC50: "> 7.30"

Consider the additional molecule presented here.
[in] Recall the recorded pIC50 for Cn1cc(-c2nc3c(N4CCN(S(=O)(=O)c5ccc(F)cc5)CC4)ncnc3n2C)cn1 with PI3K delta (Homo sapiens, UniProt O00329) and state it.
[out] 5.82 to 6.30
